# TEST_SUMMARY: Lipophilicity index (substitution method)
# Format: physicochemical
# CONDITION_PARAMETERS: octanol/water
OBSERVED_PROPERTY: Index

Reference set, count: 2
CCCCCCN(C)c1ccc(Nc2c3ccc(N(C)C)cc3nc3cc(N(C)C)ccc23)cc1 3.4
CCCCCN(CCCCC)c1ccc(Nc2c3ccccc3nc3ccccc23)cc1 4.88

(1) CCN(C)c1ccc(Nc2c3ccccc3nc3ccccc23)cc1
(2) CN(C)Cc1ccc(Nc2c3ccc(Cl)cc3nc3cc(Cl)ccc23)cc1
(3) CCCCCCCc1ccc(Nc2c3ccccc3nc3ccccc23)cc1
(4) CCCCCCNc1ccc(Nc2c3ccccc3nc3ccccc23)cc1OC
Ordering criterion: Index; begin with the maximum. Order the labels as requested and give them as your answer.
3, 4, 2, 1
(3: 3.99, 4: 2.36, 2: 1.27, 1: 0.68)
